Quick list: IC50 per entry.
# system: T1, IL-11-mFc ligand protein (human, UniProt P20809 22-199)
# T1 construct: The construct is not described; also called IL-11 ligand protein; not shown: mFc part (detected with goat anti-mouse IgG)
# T1 sequence (looked up): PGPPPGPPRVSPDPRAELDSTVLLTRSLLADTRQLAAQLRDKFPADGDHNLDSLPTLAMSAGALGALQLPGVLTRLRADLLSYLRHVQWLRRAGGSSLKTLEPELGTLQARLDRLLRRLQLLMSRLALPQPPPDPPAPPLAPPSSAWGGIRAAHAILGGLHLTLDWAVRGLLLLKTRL
# method summary: flow cytometry: inhibition of IL-11-mFc binding to GP130 on BaF/3-GP130 cells, goat anti-mouse IgG-FITC detection
Form entry: value (µg/mL) — number only.

Please review the following examples before continuing.
humanized antibody molecule HA-I-D (antibody, human IgG1, kappa, L234A L235A, V domains shown) VH: QVQLVESGGGLVKPGGSLRLSCAASGFTFSDYYMFWVRQAPGKGLEWVATISDGGTYTYYPDSVKGRFTISRDNAKNSLYLQMNSLRAEDTAMYYCARDGGYVSSPEAMDYWGQGTSVTVSS VL: DIVLTQSPSSLSASVGDRVTITCRASQDISNYLNWYQQKPGGAVKLLIYYTSRLHSGVPSRFSGSGSGTDYTFTISSLQPEDIATYFCQQGNTLPPTFGGGTKVEIKR; 128
humanized antibody molecule HA-I-B (antibody, human IgG1, kappa, L234A L235A, V domains shown) VH: QVQLVESGGGLVKPGGSLRLSCAASGFTFSDYYMFWVRQAPGKGLEWVSTISDGGTYTYYPDSVKGRFTISRDNAKNSLYLQMNSLRAEDTAVYYCARDGGYVSSPEAMDYWGQGTLVTVSS VL: DIVLTQSPSSLSASVGDRVTITCRASQDISNYLNWYQQKPGKAPKLLIYYTSRLHSGVPSRFSGSGSGTDYTFTISSLQPEDIATYYCQQGNTLPPTFGGGTKVEIKR; 39.6
humanized antibody molecule HA-I-C (antibody, human IgG1, kappa, L234A L235A, V domains shown) VH: QVQLVESGGGLVKPGGSLRLSCAASGFTFSDYYMFWVRQAPGKGLEWVATISDGGTYTYYPDSVKGRFTISRDNAKNSLYLQMNSLRAEDTAVYYCARDGGYVSSPEAMDYWGQGTLVTVSS VL: DIVLTQSPSSLSASVGDRVTITCRASQDISNYLNWYQQKPGKAVKLLIYYTSRLHSGVPSRFSGSGSGTDYTFTISSLQPEDIATYFCQQGNTLPPTFGGGTKVEIKR; 46.2

Next:
Kindly indicate its recorded IC50. Item: humanized antibody molecule HA-I-A (antibody, human IgG1, kappa, L234A L235A, V domains shown, anti-IL-11 monoclonal antibody HA-I-A) VH: QVQLVESGGGLVKPGGSLRLSCAASGFTFSDYYMFWVRQAPGKGLEWVATISDGGTYTYYPDSVKGRFTISRDNAKNSLYLQMNSLRAEDTAVYYCARDGGYVSSPEAMDYWGQGTLVTVSS VL: DIVLTQSPSSLSASVGDRVTITCRASQDISNYLNWYQQKPGKAPKLLIYYTSRLHSGVPSRFSGSGSGTDFTFTISSLQPEDIATYYCQQGNTLPPTFGGGTKVEIKR
23.5

Attribution: patent EP4722243A1
